target: human cannabinoid CB1 receptor (Homo sapiens); construct: expressed in transfected cells; host or cells: Chinese hamster ovary (CHO) cells, membrane preparation; test: In vitro affinity for cannabinoid-CB1 receptors ([3H]CP-55,940 radioligand binding, CHO cell membranes)
Sequence (P21554 whole entry): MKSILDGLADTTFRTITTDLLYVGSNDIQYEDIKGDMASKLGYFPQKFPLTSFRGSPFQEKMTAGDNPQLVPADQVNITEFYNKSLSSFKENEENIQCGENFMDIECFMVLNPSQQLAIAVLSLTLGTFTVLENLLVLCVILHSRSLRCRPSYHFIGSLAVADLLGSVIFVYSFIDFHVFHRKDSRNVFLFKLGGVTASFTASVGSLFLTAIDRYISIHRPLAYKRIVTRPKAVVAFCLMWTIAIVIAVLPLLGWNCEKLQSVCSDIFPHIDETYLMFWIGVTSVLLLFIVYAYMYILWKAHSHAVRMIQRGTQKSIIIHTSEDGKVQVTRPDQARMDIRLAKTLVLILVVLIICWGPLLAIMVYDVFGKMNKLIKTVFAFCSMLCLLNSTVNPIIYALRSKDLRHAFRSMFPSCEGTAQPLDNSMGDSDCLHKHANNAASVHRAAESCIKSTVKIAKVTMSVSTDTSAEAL
Quick reference: pKi of the listed items.
Schema: pKi number; meaning minus log10 of the concentration expressed in molar units.

# compound, pKi
rows = [
    ("CCc1nc(C(=O)NC23CC4CC(CC(C4)C2)C3)cn1-c1ccccc1 [Compound 20]", 6.60),
]

// switching to the query compound
Log: human cannabinoid CB1 receptor (Homo sapiens), compound CCc1c(C(=O)NC23CC4CC(CC(C4)C2)C3)nc(C)n1-c1ccccc1 [Compound 15] , pKi = 6.20
